# Tested on: P. falciparum Dd2-2D4 NCP26 selections S1-3
# Protocol Description: ABS growth assay on bulk populations and clones from NCP26 resistance selections S1-3
# Format: cell-based, Plasmodium falciparum
# Cond: Plasmodium falciparum, DD2, cell line S2 - Clone A3; read-out: EC50 [nM] mean
Assay Endpoint: log10 EC50 (log10 of the value in nM)

C[C@@H]1C[C@H](C)C[C@H](C)[C@@H](O)CC(=O)O[C@H]([C@@H]2CCC[C@H]2C(=O)O)C/C=C/C=C(/C#N)[C@H](O)[C@@H](C)C1 [Borrelidin, borrelidin, reference compound] ... 0.20
Nc1ncnc2c1ncn2[C@@H]1O[C@H](COS(=O)(=O)NC(=O)[C@@H]2CCCN2)[C@@H](O)[C@H]1O [ProSA, reference compound] ... 2.32
O=C(NC1Cc2ccccc2C1)c1nccnc1NC(=O)N1CCCCC1 [NCP26] ... 3.09
O=C(CC1NCCCC1O)Cn1cnc2cc(Br)c(Cl)cc2c1=O (centres unmarked) [Halofuginone] ... -0.44
C[C@H]1[C@@H](O)O[C@@H]2O[C@@]3(C)CC[C@H]4[C@H](C)CC[C@@H]1[C@@]24OO3 [DHA, dihydroartemisinin, reference compound] ... 0.30

* * *

List of Kd values.
# Assay Target: HsProRS (Homo sapiens, UniProt P07814)
# Sequence (P07814 996-1512): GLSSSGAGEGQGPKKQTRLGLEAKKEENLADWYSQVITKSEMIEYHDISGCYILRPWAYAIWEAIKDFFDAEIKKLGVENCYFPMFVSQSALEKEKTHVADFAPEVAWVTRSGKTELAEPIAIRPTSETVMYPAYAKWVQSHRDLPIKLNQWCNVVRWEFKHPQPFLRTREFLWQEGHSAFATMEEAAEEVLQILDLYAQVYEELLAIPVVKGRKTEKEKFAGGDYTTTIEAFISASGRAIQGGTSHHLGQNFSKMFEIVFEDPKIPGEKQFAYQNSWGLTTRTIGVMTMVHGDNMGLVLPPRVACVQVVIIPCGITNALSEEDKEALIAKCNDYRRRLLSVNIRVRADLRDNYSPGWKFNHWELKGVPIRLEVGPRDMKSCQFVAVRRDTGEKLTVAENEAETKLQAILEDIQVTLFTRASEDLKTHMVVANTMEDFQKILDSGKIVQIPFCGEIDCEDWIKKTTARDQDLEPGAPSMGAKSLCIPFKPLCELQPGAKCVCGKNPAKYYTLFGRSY
# Protocol Description: TR-FRET ligand displacement assay with tracer MAT379 (CoraFluor-1-Halo and anti-His6 antibody formats)
# Assay type: binding
# Set-up: made in house; host or cells: E. coli SoluBL-21
# Cond: HsProRS (KD [nM]) −, absence of substrates; 250 nM MAT379
Assay Endpoint: Kd (nM)

O=C(NC1Cc2ccccc2C1)c1nccnc1NC(=O)N1CCCCC1 ... 271
CC(C)(C)OC(=O)N[C@H]1CC[C@@H](C(=O)Nc2nccnc2C(=O)NC2Cc3ccccc3C2)CC1 ... 56.8
O=C(NC1Cc2ccccc2C1)c1nccnc1NC(=O)C1CCCCC1 [compound 2, reference compound] ... 371
CC1(C(=O)Nc2nccnc2C(=O)NC2Cc3ccccc3C2)CCCCC1 ... 221

* * *

List of Kd tested on HT-PfcProRS (Plasmodium falciparum).
Sequence (Q8I5R7 249-746): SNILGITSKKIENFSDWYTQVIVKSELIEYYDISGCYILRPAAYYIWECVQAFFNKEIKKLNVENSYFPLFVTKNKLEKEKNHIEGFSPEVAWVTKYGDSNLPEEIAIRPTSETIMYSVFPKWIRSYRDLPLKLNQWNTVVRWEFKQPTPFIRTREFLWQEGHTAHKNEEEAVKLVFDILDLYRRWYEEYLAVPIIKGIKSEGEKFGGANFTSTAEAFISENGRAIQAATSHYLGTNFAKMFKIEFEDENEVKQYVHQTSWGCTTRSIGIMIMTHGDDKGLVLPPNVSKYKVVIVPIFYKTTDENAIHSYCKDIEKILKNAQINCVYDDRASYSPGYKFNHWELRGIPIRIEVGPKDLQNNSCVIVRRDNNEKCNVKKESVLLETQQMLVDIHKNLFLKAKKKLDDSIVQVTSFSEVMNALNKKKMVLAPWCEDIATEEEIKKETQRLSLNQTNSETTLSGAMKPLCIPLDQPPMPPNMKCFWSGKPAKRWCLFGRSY
Assay Endpoint: Kd (µM)

O=C(O)[C@@H]1CCCN1 ... 457
Nc1ncnc2c1ncn2[C@@H]1O[C@H](COP(=O)(O)OP(=O)(O)OP(=O)(O)O)[C@@H](O)[C@H]1O ... 892

* * *

# Assay Target: HsProRS (Homo sapiens, UniProt P07814)
# Protocol Description: TR-FRET ligand displacement assay with tracer MAT379 (CoraFluor-1-Halo and anti-His6 antibody formats)
# Assay type: binding
# Set-up: made in house; host or cells: E. coli SoluBL-21
# Cond: HsProRS (KD [nM]) mean, no added proline/ATP (-)
The reader will find reported Kd values listed item by item below.
Assay Endpoint: Kd (nM)

NCCCCCC(=O)NC1CCN(C(=O)Nc2nccnc2C(=O)NC2Cc3ccccc3C2)CC1 ... 674
O=C(NC1Cc2ccccc2C1)c1nccnc1NC(=O)C1CCC1 ... 738
O=C(Nc1nccnc1C(=O)NC1Cc2ccccc2C1)c1ccccc1 ... 7830

* * *

# Test system: P. falciparum Dd2-2D4 NCP26 selections S1-3
# Protocol Description: ABS growth assay on bulk populations and clones from NCP26 resistance selections S1-3
# Type: cell-based, Plasmodium falciparum
# Cond: Plasmodium falciparum, DD2, cell line S3 - bulk population; read-out: EC50 [nM] mean
Here the recorded EC50 is given for each entry.
Assay Endpoint: EC50 (nM)

O=C(NC1Cc2ccccc2C1)c1nccnc1NC(=O)N1CCCCC1 [NCP26] ... 2000
C[C@@H]1C[C@H](C)C[C@H](C)[C@@H](O)CC(=O)O[C@H]([C@@H]2CCC[C@H]2C(=O)O)C/C=C/C=C(/C#N)[C@H](O)[C@@H](C)C1 [Borrelidin, borrelidin, reference compound] ... 1.3
C[C@H]1[C@@H](O)O[C@@H]2O[C@@]3(C)CC[C@H]4[C@H](C)CC[C@@H]1[C@@]24OO3 [DHA, dihydroartemisinin, reference compound] ... 3.44
O=C(CC1NCCCC1O)Cn1cnc2cc(Br)c(Cl)cc2c1=O (stereo not shown) [Halofuginone] ... 2.56

* * *

# Assay Target: HsProRS (Homo sapiens, UniProt P07814)
# Protocol Description: TR-FRET ligand displacement assay with tracer MAT379 (CoraFluor-1-Halo and anti-His6 antibody formats)
# Type: binding
# Design: made in house; host or cells: E. coli SoluBL-21
# Cond: no added proline/ATP (-); 10 μM
Catalogue of HsProRS % signal at 10 μM readings, one per entry.
Assay Endpoint: HsProRS % signal at 10 μM (%)

O=C(NC1Cc2ccccc2C1)c1nccnc1NC(=O)N1CCNCC1 ... 53.8
O=c1[nH]c2nccnc2c(=O)n1C1Cc2ccccc2C1 ... 79.5
NC1CCN(C(=O)Nc2nccnc2C(=O)NC2Cc3ccccc3C2)CC1 ... 81.0
C[C@@H]1CCC[C@H](C)N1C(=O)Nc1nccnc1C(=O)NC1Cc2ccccc2C1 ... 80.7
CC(C)N(C(=O)Nc1nccnc1C(=O)NC1Cc2ccccc2C1)C(C)C ... 63.6
CC(C)(C)OC(=O)N1CCN(C(=O)Nc2nccnc2C(=O)NC2Cc3ccccc3C2)CC1 ... 59.4
CC(C)(C)OC(=O)NC1(C(=O)Nc2nccnc2C(=O)NC2Cc3ccccc3C2)CCCCC1 ... 84.5
CNc1nccnc1C(=O)NC1Cc2ccccc2C1 ... 97.1
O=C(NC1CCCCC1)c1nccnc1NC(=O)C1Cc2ccccc2C1 ... 90.3
NC(=O)Nc1nccnc1C(=O)NC1Cc2ccccc2C1 ... 89.0

* * *

# Assay Target: UniProtKB P07814
# Protocol Description: TR-FRET ligand displacement assay with tracer MAT379 (CoraFluor-1-Halo and anti-His6 antibody formats)
# Format: binding
# Design: made in house; host or cells: E. coli SoluBL-21
# Cond: no added proline/ATP (-); 10 μM
Reported HsProRS % signal at 10 μM values are given for each entry in this list.
Assay Endpoint: HsProRS % signal at 10 μM (%)

Nc1nccnc1C(=O)NC1CCCCC1 ... 89.6
O=C(O)CCCC(=O)Nc1nccnc1C(=O)NC1Cc2ccccc2C1 ... 71.3
O=C(NC1Cc2ccccc2C1)c1nccnc1NS(=O)(=O)C1CCCCC1 ... 87.7
Nc1nccnc1C(=O)NC1Cc2ccccc2C1 ... 90.2
NCC1CCN(C(=O)Nc2nccnc2C(=O)NC2Cc3ccccc3C2)CC1 ... 61.2

* * *

This listing pairs molecules with measured EC50.
# System: P. falciparum Dd2-2D4
# Protocol Description: P. falciparum asexual blood stage (ABS) growth assay, SYBR Green, 72 h, wild-type parasites
# Assay type: cell-based, Plasmodium falciparum
# Cond: Plasmodium falciparum, DD2; SI Fig 16b; values on -log scale; read-out: ABS - Dd2-2D4 (converted)
Assay Endpoint: EC50 (µM)

CC(C)(C)OC(=O)NCCCCCC(=O)NC1CCN(C(=O)Nc2nccnc2C(=O)NC2Cc3ccccc3C2)CC1 [compound 41] ... 2.11
CC(C)(C)OC(=O)N[C@H]1CC[C@@H](C(=O)Nc2nccnc2C(=O)NC2Cc3ccccc3C2)CC1 [compound 6] ... 0.508
Nc1nccnc1C(=O)NC1Cc2ccccc2C1 [compound 45] ... 13.6
O=C(NC1Cc2ccccc2C1)c1nccnc1NC(=O)N1CCCCC1 [NCP26] ... 0.0675
CC(C)(C)OC(=O)NC1CCN(C(=O)Nc2nccnc2C(=O)NC2Cc3ccccc3C2)CC1 [compound 7] ... 0.0906
O=C(NC1CCCCC1)c1nccnc1NC(=O)C1Cc2ccccc2C1 [compound 49] ... 6.81
O=c1[nH]c2nccnc2c(=O)n1C1Cc2ccccc2C1 [compound 47] ... 11.1
NC1(C(=O)Nc2nccnc2C(=O)NC2Cc3ccccc3C2)CCCCC1 [compound 17] ... 5.79
O=C(NC1Cc2ccccc2C1)c1nccnc1NC(=O)C1CCCCC1 [compound 2, reference compound] ... 0.596
O=C(NC1Cc2ccccc2C1)c1nccnc1NC(=O)N1CCC(CNC(=O)[C@@H]2CCCN2)CC1 [MAT345] ... 0.249
O=C(NC1Cc2ccccc2C1)c1nccnc1NC(=O)C1CCC1 [compound 20] ... 3.74
COc1ccc(Cl)cc1C(=O)NCCc1ccc(S(=O)(=O)NC(=O)NC2CCCCC2)cc1 [Glyburide, reference compound] ... 75.7
O=C(NC1Cc2ccccc2C1)c1nccnc1NS(=O)(=O)C1CCCCC1 [compound 50] ... 13
CC(C)(C)OC(=O)NCCCCCC(=O)NCC1CCN(C(=O)Nc2nccnc2C(=O)NC2Cc3ccccc3C2)CC1 [compound 43] ... 3.33
O=C(Nc1nccnc1C(=O)NC1Cc2ccccc2C1)c1ccccc1 [compound 21] ... 9.59
O=C(CC1NCCCC1O)Cn1cnc2cc(Br)c(Cl)cc2c1=O (stereo not drawn) [Halofuginone] ... 0.000519
O=C(NC1Cc2ccccc2C1)c1nccnc1NC(=O)N1CCC(CO)CC1 [compound 11] ... 0.711
NC(=O)Nc1nccnc1C(=O)NC1Cc2ccccc2C1 [compound 23] ... 12.1
